Recorded viability by entry
- protocol notes: HUVEC growth inhibition – cell-based, human, primary screen (AID 575);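 further: 100% = median of untreated cell wells with 0.1% DMSO on each plate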
- condition: HUVEC proliferation, CellTiter-Glo luminescence, 72 h; at 10 µM; stronger effect = lower value
recorded endpoint: viability (%)

molecule | recorded endpoint | observed measurement
COC(=O)CC1(Cc2ccccc2)C(=O)NC(=O)NC1=O | viability | 86.8
CCOC(=O)c1cccc([P+](=O)O)c1 | viability | 96.3
O=c1[nH]c(=O)n(-c2ccc(F)cc2)c(O)c1C=Nc1ccccc1N1CCCC1 | viability | 73.9
O=c1[nH]c(=O)n(CCc2ccc(F)cc2)c(O)c1C=NCCCn1ccnc1 | viability | 99.5
C[N+]1(C)[C@@H]2CC(OC(=O)[C@H](CO)c3ccccc3)C[C@H]1[C@@H]1O[C@@H]12 (stereo not given in full) | viability | 101
CCN1CCN(C(=O)COc2cc(=O)n(CC)c3ccccc23)CC1 | viability | 89.2
CN(C)[C@@H]1C(=O)C(C(N)=O)=C(O)[C@@]2(O)C(=O)C3=C(O)c4c(O)cccc4[C@@](C)(O)[C@H]3C[C@@H]12 | viability | 102
CCOC(=O)C(O)(c1ccc(N(CC)C(=O)OC)cc1)C(F)(F)F (stereo not given) | viability | 110
CCn1nc(-c2ccccc2)nc2c(=O)n(C)c(=O)nc1-2 | viability | 2.75
CCN1c2nc3ccccn3c(=O)c2CC2(C(=O)N(C)C(=O)N(C)C2=O)C1C (stereo not given) | viability | 104
OCCOCC#CCN1CCOCC1 | viability | 101
CC(=NCc1cccnc1)c1c(O)n(Cc2ccccc2)c(=O)[nH]c1=O | viability | 92.6
COc1ccc(CN2CCN(c3ccccc3F)CC2)c(OC)c1 | viability | 91.1
O=c1[nH]c(=O)n(-c2cccc3ccccc23)c(O)c1C=NCCCn1ccnc1 | viability | 101
CCCCn1c(O)c(C(C)=NC(Cc2c[nH]c3ccccc23)C(=O)OC)c(=O)[nH]c1=O (stereo not given) | viability | 84.5
CC1CCC(C(=O)NC(C(=O)N2CCC3(CC2)OCCO3)C(C)C)CC1 (stereo not given) | viability | 114
CCCCn1c(O)c(C(C)=NCCc2ccccc2)c(=O)[nH]c1=O | viability | 95.6
COc1ccccc1N1CCN(Cc2cccc(OC)c2O)CC1 | viability | 118
CCC(C(=O)N1CCC2(CC1)OCCO2)c1ccccc1 (stereo not given) | viability | 102
CCCCCCOc1ccc(CN2CCN(C)CC2)cc1 | viability | 61.5
CCOc1c(P(=S)(N(C)C)N(C)C)c(C)nn1-c1ccccc1 | viability | 98.6
Cc1[nH]c2c(Cl)cccc2c1CCN | viability | 84.4
C=CCn1c(O)c(C(C)=Nc2ccc(N(CC)CC)cc2)c(=O)[nH]c1=O | viability | 62.6
CCCCOc1ccc(CN2CCN(CCO)CC2)cc1 | viability | 94.7
CN1C(=O)CN=C(c2ccc(Cl)cc2)c2cc(Cl)ccc21 | viability | 61.8
CN1C[C@H](CNC(=O)OCc2ccccc2)C[C@@H]2c3cccc4c3c(cn4C)C[C@H]21 | viability | 2.42
CN(C)CCc1nc2ccccc2c(=O)n1-c1ccccc1 | viability | 92.1
CN1C(=O)N(C)C(=O)C2(Cc3ccccc3N3CCOCC32)C1=O (stereo not given) | viability | 94.8
O=C(Cc1ccccc1)OC(COCc1ccccc1)CN1CCOCC1 (stereo not given) | viability | 88.3
COc1ccc(OC)c(N2C(=O)NC(=O)C(CCc3ccncc3)(CCc3ccncc3)C2=O)c1 | viability | 91
C=C1CC[C@@]2(O)[C@H]3Cc4ccc(O)c5c4[C@@]2(CCN3CC2CC2)[C@H]1O5 | viability | 95.2
COc1ccc(OC)c([C@@H](O)[C@H](C)NC(C)(C)C)c1 | viability | 92.3
c1cncc(CNC2=NCCCCC2)c1 | viability | 96.6
Cc1ccc(-c2nc(CS(=O)CC(=O)N3CCC4(CC3)OCCO4)c(C)o2)cc1 (stereo not given) | viability | 96.4
c1ccc2c3c([nH]c2c1)CNCC3 | viability | 77.7
CC(=NCCCN1CCOCC1)c1c(O)n(-c2ccccc2C)c(=O)[nH]c1=O | viability | 91.3
N#Cc1ccccc1Cn1cc(C(=O)c2ccco2)c2ccccc21 | viability | 105
CCOc1ccc(-n2c(O)c(C=NCCN(CC)CC)c(=O)[nH]c2=O)cc1 | viability | 100
COc1ccc(OC)c(C(O)C(C)N)c1 (stereo not given) | viability | 108
O=C(c1cccs1)C1CN2CCC1CC2 (stereo not given) | viability | 94.3
COc1ccc(S(=O)(=O)NC(CC(=O)N2CCC3(CC2)OCCO3)c2ccco2)cc1 (stereo not given) | viability | 101
Cc1ccc(C)c(NC(=O)CSc2nnc([C@@H](N)Cc3c[nH]c4ccccc34)o2)c1 | viability | 86.9
COc1cc(/C=N/n2cnnc2)ccc1OC(=O)N(C)C | viability | 99.5
CCOc1ccc(-n2c(O)c(C=NCCN3CCNCC3)c(=O)[nH]c2=O)cc1 | viability | 100
CCCNC(=O)c1c(N)n(Cc2ccc3c(c2)OCO3)c2nc3ccccc3nc12 | viability | 21.8

---

Documented inhibition across a set of compounds
- test system: Pantothenate synthetase (Mycobacterium tuberculosis (strain ATCC 25618 / H37Rv))
- protocol notes: Coupled enzyme confirmation of inhibitors against recombinant Mtb PanC (AID 375);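 further: 0% = full reaction with vehicle and 100% = no enzyme background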
- condition: coupled enzyme assay; at 10 µM, stronger effect = higher value

compound | inhibition [%]
Cc1occc1C(=O)N1CCN(Cc2ccccc2)CC1 | 0
CCCCCCCCNC(C)C(O)c1ccc(SC(C)C)cc1 (stereo not drawn) | 0
COC(=O)c1c(C)oc2ccc(NS(=O)(=O)c3cccs3)cc12 | 0
CC(C(=O)O)c1ccc(-c2ccccc2)c(F)c1 (stereo not drawn) | 0
Cc1nc(NC2=NCN(CC3CCCO3)CN2)nc2ccccc12 (stereo not drawn) | 0
CCOC(=O)C1CCN(c2c(NC3CCCc4ccccc43)c(=O)c2=O)CC1 (stereo not drawn) | 2
Oc1cccc(Nc2nc(NCC3CCCO3)c3ccccc3n2)c1 (stereo not drawn) | 1
COc1cc(NC(=O)c2cc(OC)c(OC)c(OC)c2)c(OC)cc1NC(=O)CN1CCCCC1 | 1
Oc1c(Cl)cc(Cl)cc1CNc1ccc(Br)cn1 | 4
CCOCCCNC(=O)Cn1cc2c(n1)CCCCC2 | 2
COCCn1nnnc1C(c1cc2ccc(OC)cc2[nH]c1=O)N1CCc2ccccc2C1 (stereo not drawn) | 0
O=C(C1CCCN(S(=O)(=O)c2cnc[nH]2)C1)N1CC(=O)N(CCc2ccccc2)C(=O)C1 (stereo not drawn) | 0
COC(=O)c1[nH]c2c(c1C)C(=O)CC(c1cc(OC)ccc1OC)C2 (stereo not drawn) | 0
O=C(CN1C(=O)CCS(=O)(=O)c2ccccc21)NCc1ccc(F)cc1 | 3
COCCCC/C(=N\OCCN)c1ccc(C(F)(F)F)cc1 | 0
O=C(Nc1ccc2c(c1)OCCO2)C1CCCN(S(=O)(=O)c2cnc[nH]2)C1 (stereo not drawn) | 0
CC(C)(C)NC(=O)NC(=O)COc1ccccc1C#N | 3
CC(C[N+](C)(C)C)OC(N)=O (stereo not drawn) | 0
CC(=O)N1CCN(S(=O)(=O)c2ccc(S(=O)(=O)NCC(C)C)cc2)CC1 | 5
O=S(=O)(NCCSc1ccccc1)c1cccs1 | 0
CN1CCN(C(=O)c2ccc3c(=O)n(CCc4ccccc4)c(=S)[nH]c3c2)CC1 | 0
O=C(CC(SCCO)c1ccc2c(c1)OCO2)c1ccco1 (stereo not drawn) | 0
CCCN1C(=O)SC(CC(=O)Nc2ccc(Br)cc2)C1=O (stereo not drawn) | 2
